- target_under_test: HDAC6 enzyme (Homo sapiens, UniProt Q9UBN7)
- Construct: transducing full length HDAC6 gene into Sf-9 insect cells; GST; purchased SignalChem; host or cells: Sf-9 insect cells
- Sequence (Q9UBN7 1-1215): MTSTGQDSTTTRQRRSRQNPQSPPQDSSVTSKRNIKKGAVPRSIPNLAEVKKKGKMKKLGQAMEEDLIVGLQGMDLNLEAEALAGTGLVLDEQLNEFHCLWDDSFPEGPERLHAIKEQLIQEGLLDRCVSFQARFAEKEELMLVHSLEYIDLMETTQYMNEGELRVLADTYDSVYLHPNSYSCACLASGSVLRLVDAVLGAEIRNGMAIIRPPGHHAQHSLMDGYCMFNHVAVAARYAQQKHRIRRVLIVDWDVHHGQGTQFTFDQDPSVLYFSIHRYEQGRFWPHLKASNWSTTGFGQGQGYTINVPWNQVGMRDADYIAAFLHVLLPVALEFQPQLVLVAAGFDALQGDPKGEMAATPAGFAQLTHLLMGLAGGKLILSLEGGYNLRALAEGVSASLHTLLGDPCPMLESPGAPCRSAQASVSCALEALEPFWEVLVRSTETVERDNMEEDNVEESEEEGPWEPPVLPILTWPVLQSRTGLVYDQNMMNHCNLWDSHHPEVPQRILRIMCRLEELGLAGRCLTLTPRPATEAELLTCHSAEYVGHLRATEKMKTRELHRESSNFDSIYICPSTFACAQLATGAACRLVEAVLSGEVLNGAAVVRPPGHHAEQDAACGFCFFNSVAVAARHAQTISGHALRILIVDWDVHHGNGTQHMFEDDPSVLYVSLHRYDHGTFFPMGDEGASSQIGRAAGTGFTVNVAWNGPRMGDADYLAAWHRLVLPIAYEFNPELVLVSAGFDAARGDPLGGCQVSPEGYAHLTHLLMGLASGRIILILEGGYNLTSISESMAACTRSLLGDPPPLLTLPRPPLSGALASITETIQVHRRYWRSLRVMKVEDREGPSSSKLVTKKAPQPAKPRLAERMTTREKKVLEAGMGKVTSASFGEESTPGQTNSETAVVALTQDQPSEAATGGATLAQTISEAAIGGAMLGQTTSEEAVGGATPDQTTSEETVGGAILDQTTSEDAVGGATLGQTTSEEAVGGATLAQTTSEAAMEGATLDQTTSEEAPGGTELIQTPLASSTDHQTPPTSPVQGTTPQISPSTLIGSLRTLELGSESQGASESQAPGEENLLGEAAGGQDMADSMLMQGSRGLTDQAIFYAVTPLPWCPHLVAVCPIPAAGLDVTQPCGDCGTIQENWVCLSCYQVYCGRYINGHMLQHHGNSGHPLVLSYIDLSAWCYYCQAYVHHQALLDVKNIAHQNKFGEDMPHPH
- test_summary: HDAC6 enzyme inhibitory activity (HDAC-Glo I/II Assay kit)
- Assay type: biochemical
- condition: 10 μM; wells without enzyme = 100% inhibition; read-out: HDAC6 inhibitory rate (%) (10 μM)
experimental_readout: inhibition at 10 µM (%)
Numbers only, in %.

Example entries begin here.
compound=O=C1c2cc(-c3nnc(C(F)F)o3)cnc2CN1Cc1cccc(F)c1 result=97
compound="Cc1ccc(C2CC(F)(F)CCN2N2Cc3ccc(-c4nnc(C(F)F)o4)cc3C2=O)nc1 (stereo not shown)" result=100
compound=CC(C)(C)OC(=O)N[C@@H]1CCCC[C@H]1N1Cc2ncc(-c3nnc(C(F)F)o3)cc2C1=O result=99
compound=Cn1cc(CN2Cc3ncc(-c4nnc(C(F)F)o4)cc3C2=O)cn1 result=99
compound=O=C1c2cc(-c3nnc(C(F)F)o3)cnc2CN1Cc1ccccc1Cl result=96
compound=CCC(F)(F)C(=O)N[C@@H]1CCCC[C@H]1N1Cc2ncc(-c3nnc(C(F)F)o3)cc2C1=O result=100

Field inhibition at 10 µM (entry O=C1c2cc(-c3nnc(C(F)F)o3)ccc2CN1[C@@H]1CCC(F)(F)C[C@H]1c1ccccn1 (relative stereo) ) reads 100

====

For each of the compounds below, state its inhibition at 10 µM.
- target_under_test: HDAC6 enzyme (Homo sapiens, UniProt Q9UBN7)
- Construct: transducing full length HDAC6 gene into Sf-9 insect cells; GST; purchased SignalChem; host or cells: Sf-9 insect cells
- test_summary: HDAC6 enzyme inhibitory activity (HDAC-Glo I/II Assay kit)
- Format: biochemical
- condition: 10 μM; wells without enzyme = 100% inhibition; read-out: HDAC6 inhibitory rate (%) (10 μM)
One number for each entry, in %.

Example entries begin here.
compound="CC(C)(C)OC(=O)NC1CCC(c2cc(F)ccc2N2Cc3ccc(-c4nnc(C(F)F)o4)cc3C2=O)CC1 (stereo not drawn) [Example 525]" experimental_readout="inhibition at 10 µM" result=100
compound="Cn1cc(N2Cc3ccc(-c4nnc(C(F)F)o4)cc3C2=O)c(-c2ccccc2)n1 [Example 493]" experimental_readout="inhibition at 10 µM" result=99
compound="O=C1c2cc(-c3nnc(C(F)F)o3)cnc2CN1[C@@H]1CCCC[C@H]1NC(=O)C(F)(F)F [Example 215]" experimental_readout="inhibition at 10 µM" result=101
compound="O=C(N[C@@H]1[C@H](N2Cc3ccc(-c4nnc(C(F)F)o4)cc3C2=O)CCCC1(F)F)OCc1ccccc1 [Example 619]" experimental_readout="inhibition at 10 µM" result=100
compound="N#CC1(C(=O)N[C@@H]2CCCC[C@H]2N2Cc3ccc(-c4nnc(C(F)F)o4)cc3C2=O)CC1 [Example 17]" experimental_readout="inhibition at 10 µM" result=101

// for each compound in input: emit inhibition at 10 µM
1. O=C1c2cc(-c3nnc(C(F)F)o3)ccc2CN1c1ccc(Cl)cc1Br [Example 241]
2. Cn1cc(-c2cc(F)cc(C#N)c2)c(N2Cc3ccc(-c4nnc(C(F)F)o4)cc3C2=O)n1 [Example 468]
3. N[C@@H]1CCCC[C@H]1N1Cc2ccc(-c3nnc(C(F)F)o3)cc2C1=O [Example 38]
4. O=C(N[C@@H]1CCCC[C@H]1N1Cc2ncc(-c3nnc(C(F)F)o3)cc2C1=O)c1ccccc1F [Example 222]

1: 91; 2: 100; 3: 91; 4: 99

// for each compound in input: emit inhibition at 10 µM
1. O=C1c2cc(-c3nnc(C(F)F)o3)cnc2CN1[C@@H]1CCNC[C@@H]1c1ccccc1 [Example 193]
2. CC(C)(C)OC(=O)N1CCC(c2cc(F)ccc2N2Cc3ccc(-c4nnc(C(F)F)o4)cc3C2=O)CC1 [Example 524]
3. O=C1c2cc(-c3nnc(C(F)F)o3)ccc2CN1CCOCc1ccccc1 [Example 234]

[102, 99, 98]

====

- target_under_test: HDAC6 enzyme (Homo sapiens)
- Construct: transducing full length HDAC6 gene into Sf-9 insect cells; GST; purchased SignalChem; host or cells: Sf-9 insect cells
- test_summary: HDAC6 enzyme inhibitory activity (HDAC-Glo I/II Assay kit)
- Type: biochemical
- condition: 10 μM; wells without enzyme = 100% inhibition; read-out: HDAC6 inhibitory rate (%) (10 μM)
For each of the compounds below, state its inhibition at 10 µM.
Give bare numbers, in %.

Example entries begin here.
compound="O=C1c2cc(-c3nnc(C(F)F)o3)ccc2CN1N1CCCC1c1ccccc1 (stereo not drawn) [Example 491]" experimental_readout="inhibition at 10 µM" unit_of_measure=% result=99
compound="O=C1c2cc(-c3nnc(C(F)F)o3)cnc2CN1[C@@H]1CCCC[C@H]1NC(=O)C1(C(F)F)CC1 [Example 235]" experimental_readout="inhibition at 10 µM" unit_of_measure=% result=99
compound="O=C1c2cc(-c3nnc(C(F)F)o3)ccc2CN1CCOc1ccccc1 [Example 209]" experimental_readout="inhibition at 10 µM" unit_of_measure=% result=107
compound="CC(C)(C)OC(=O)N1CC[C@@H](N2Cc3ncc(-c4nnc(C(F)F)o4)cc3C2=O)[C@@H](c2ccccc2)C1 [Example 192]" experimental_readout="inhibition at 10 µM" unit_of_measure=% result=100

// for each compound in input: emit inhibition at 10 µM
1. O=C1c2cc(-c3nnc(C(F)F)o3)cnc2CN1[C@@H]1CCCC[C@H]1n1cnc2ccccc21 [Example 502]
2. O=C1c2cc(-c3nnc(C(F)F)o3)ccc2CN1[C@@H]1CCCC[C@H]1NC(=O)C1(c2ccc(F)cc2)CCC1 [Example 109]

[100, 97]

// for each compound in input: emit inhibition at 10 µM
1. O=C1c2cc(-c3nnc(C(F)F)o3)cc(F)c2CN1Cc1ccccc1 [Example 136]
2. O=C(N[C@@H]1CCCC[C@H]1N1Cc2ncc(-c3nnc(C(F)F)o3)cc2C1=O)C1CC1 [Example 463]
3. O=C1c2cc(-c3nnc(C(F)F)o3)cc(F)c2CN1C[C@H]1CCCN1S(=O)(=O)c1cccc(F)c1 [Example 427]
4. O=C1c2cc(-c3nnc(C(F)F)o3)ccc2CN1c1cccnc1-c1cnn(C(F)F)c1 [Example 387]
5. CC(C)(C)OC(=O)N1CCOC[C@@H]1CN1Cc2ccc(-c3nnc(C(F)F)o3)cc2C1=O [Example 35]
6. CC(C)(OC(=O)N[C@@H]1COCC[C@H]1N1Cc2c(F)cc(-c3nnc(C(F)F)o3)cc2C1=O)C(F)(F)F [Example 213]
7. O=C1OCCCN1[C@@H]1CCCC[C@H]1N1Cc2ccc(-c3nnc(C(F)F)o3)cc2C1=O [Example 21]

[99, 101, 100, 101, 97, 100, 100]

// for each compound in input: emit inhibition at 10 µM
1. CC(C)(F)C(=O)N[C@@H]1CCCC[C@H]1N1Cc2ncc(-c3nnc(C(F)F)o3)cc2C1=O [Example 214]
2. CCC(=O)N[C@@H]1CCCC[C@H]1N1Cc2ccc(-c3nnc(C(F)F)o3)cc2C1=O [Example 7]
3. CCC(=O)N[C@@H]1COCC[C@H]1N1Cc2c(F)cc(-c3nnc(C(F)F)o3)cc2C1=O [Example 191]

1. 100
2. 99
3. 101

// for each compound in input: emit inhibition at 10 µM
1. O=C1c2cc(-c3nnc(C(F)F)o3)ccc2CN1N1CCCC1c1cccc(F)c1 (stereo not drawn) [Example 553]
2. N#CC1(c2ccc(-c3ccccc3N3Cc4ccc(-c5nnc(C(F)F)o5)cc4C3=O)cc2)CC1 [Example 316]

1. 100
2. 92

Where do the numbers come from? From patent US10435399B2.
